The measurements presented in this section are drawn from ChEMBL document CHEMBL1139181.

Reported pKi values follow for various compounds
TARGET_SYSTEM: Metabotropic glutamate receptor 5 (Rattus norvegicus, UniProt P31424)
Sequence (P31424 whole entry): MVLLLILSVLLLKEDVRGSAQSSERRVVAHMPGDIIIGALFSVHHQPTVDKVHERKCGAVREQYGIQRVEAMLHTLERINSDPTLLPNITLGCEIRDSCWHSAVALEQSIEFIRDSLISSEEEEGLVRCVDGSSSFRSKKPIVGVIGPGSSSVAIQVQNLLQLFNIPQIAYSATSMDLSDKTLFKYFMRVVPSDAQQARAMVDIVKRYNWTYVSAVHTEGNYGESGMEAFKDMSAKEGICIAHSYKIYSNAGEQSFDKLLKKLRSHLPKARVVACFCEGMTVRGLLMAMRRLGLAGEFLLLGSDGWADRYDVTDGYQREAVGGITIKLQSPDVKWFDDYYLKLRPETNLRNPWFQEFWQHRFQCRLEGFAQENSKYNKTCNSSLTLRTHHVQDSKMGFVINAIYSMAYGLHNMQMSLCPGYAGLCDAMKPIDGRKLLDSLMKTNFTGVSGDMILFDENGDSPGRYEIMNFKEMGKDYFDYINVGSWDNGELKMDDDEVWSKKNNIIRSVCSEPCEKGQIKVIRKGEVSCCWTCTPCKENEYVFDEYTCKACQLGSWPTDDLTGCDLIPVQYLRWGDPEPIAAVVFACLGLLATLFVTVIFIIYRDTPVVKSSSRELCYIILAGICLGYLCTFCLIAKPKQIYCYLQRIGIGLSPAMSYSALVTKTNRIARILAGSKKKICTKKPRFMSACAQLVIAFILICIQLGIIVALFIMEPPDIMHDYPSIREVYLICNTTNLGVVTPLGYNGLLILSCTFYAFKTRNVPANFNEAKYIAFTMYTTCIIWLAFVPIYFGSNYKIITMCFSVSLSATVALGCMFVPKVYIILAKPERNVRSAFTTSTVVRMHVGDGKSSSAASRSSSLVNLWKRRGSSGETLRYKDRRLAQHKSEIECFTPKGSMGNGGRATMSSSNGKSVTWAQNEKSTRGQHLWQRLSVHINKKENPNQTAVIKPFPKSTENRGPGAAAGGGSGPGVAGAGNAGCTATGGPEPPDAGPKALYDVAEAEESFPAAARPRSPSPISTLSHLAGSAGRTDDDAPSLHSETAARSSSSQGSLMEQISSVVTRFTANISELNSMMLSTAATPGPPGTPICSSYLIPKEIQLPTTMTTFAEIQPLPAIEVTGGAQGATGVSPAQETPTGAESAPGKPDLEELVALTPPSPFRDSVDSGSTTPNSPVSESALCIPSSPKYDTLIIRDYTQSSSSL
pKi: −log10 of the molar value.
ASSAY_READOUT: pKi

1. Cc1cccc(NC(=O)c2cc(-c3cccc(F)c3)ccn2)n1 :: 6.30
2. Cc1cccc(NC(=O)c2nccc3ccccc23)n1 :: 6.36
3. Cc1cccc(NC(=O)c2cc(-c3cccc4ccccc34)ccn2)n1 :: 6.60
4. Cc1cccc(NC(=O)c2cc(-c3ncccn3)ccn2)n1 :: 5.61
5. Cc1cccc(NC(=O)c2nccn2C)n1 :: 5.51
6. Cc1cccc(NC(=O)c2ccc(-c3ccccn3)cn2)n1 :: 7.00
7. Cc1cccc(NC(=O)c2ccc(-c3ccccc3)cn2)n1 :: 5.55
8. Cc1cccc(NC(=O)c2cc(-c3cccc(C#N)c3)ccn2)n1 :: 6.49
